- METHOD_SUMMARY: Tmax in cynomolgus monkey plasma at 10 mg/kg, po administered as single dose via gavage by LC/MS analysis
- Format: ADME, organism-based, Macaca fascicularis
- Design: dose 10 mg/kg, route oral
ASSAY_READOUT: Tmax (h)
Numbers only, in h.

Prompt: Provide measured Tmax value, entry: Cc1cc2c(F)c(Oc3ncnn4cc(OC[C@@H](C)O)c(C)c34)ccc2[nH]1
Response: 1

###

- METHOD_SUMMARY: AUC (0 to t) in healthy human plasma at 400 mg, po administered as single dose via gavage by LC/MS analysis
- Format: ADME, organism-based
ASSAY_READOUT: AUC(0-t) (ng·h/mL)
Give bare numbers, in ng·h/mL.

Prompt: State its AUC(0-t): Cc1cc2c(F)c(Oc3ncnn4cc(OC[C@@H](C)O)c(C)c34)ccc2[nH]1
Response: 21800
